Target: Human immunodeficiency virus type 1 integrase (Human immunodeficiency virus 1) (UniProt Q7ZJM1)
Sequence (Q7ZJM1 as listed by the source): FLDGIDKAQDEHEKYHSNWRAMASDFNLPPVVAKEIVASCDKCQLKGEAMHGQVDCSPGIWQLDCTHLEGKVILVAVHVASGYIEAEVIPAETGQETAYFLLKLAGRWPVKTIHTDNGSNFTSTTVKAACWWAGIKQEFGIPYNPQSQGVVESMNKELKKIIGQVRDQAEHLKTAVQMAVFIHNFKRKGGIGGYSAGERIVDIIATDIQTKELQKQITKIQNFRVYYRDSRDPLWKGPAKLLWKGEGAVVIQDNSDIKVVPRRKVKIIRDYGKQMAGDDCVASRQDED
Test: Activity against HIV-1 integrase in range 5-20 uM compared to integric acid.
The source made the active and inactive calls. No cut-off for these calls is given here.
property_label: Activity

Examples with answers:
molecule	Activity
C=C(C=O)[C@@H]1C[C@@]2(C)C(=CC1=O)[C@H](OC(=O)/C(C)=C/C(C)CCCC)CC[C@@H]2C(=O)ON[C@@H](C(=O)OC)c1ccccc1 (stereo partly specified)	Active
C=C(C=O)[C@@H]1C[C@@]2(C)C(=CC1=O)[C@H](OC(=O)/C(C)=C/C(C)CCCC)CC[C@@H]2C(=O)N[C@@H](CC(C)C)C(=O)OC (stereo partly specified)	Active
CCCCC(C)/C=C(\C)C(=O)O (stereo unspecified)	Active
CCCCC(C)/C=C(\C)C(=O)O[C@@H]1CC[C@H](C(=O)O)[C@@]2(C)CC([C@@H](C)C=O)C(=O)C=C12 (stereo partly specified)	Active
C=C(C=O)[C@@H]1C[C@@]2(C)C(=CC1=O)[C@H](OC(=O)/C(C)=C/C(C)CCCC)CC[C@@H]2C(=O)N1CCN(C(=O)[C@H]2CC[C@@H](OC(=O)/C(C)=C/C(C)CCCC)C3=CC(=O)[C@H](C(=C)C=O)C[C@@]32C)CC1 (stereo partly specified)	Active

Moving on to the next molecule.
Q: What value of Activity has been reported for the following molecule? C=C(C=O)[C@@H]1C[C@@]2(C)C(=CC1=O)[C@H](OC(=O)/C(C)=C/C(C)CCCC)CC[C@@H]2C(=O)ON[C@H](C(=O)OC)c1ccccc1 (stereo partly specified)
Ans: Active
